- Protocol text: A549 cell viability effects, profiling panel, calcein-AM fluorescence, 48 h, basal (AID 1162); also: test concentration not given here
- Experimental parameters: higher = more signal
Property label: z-score
Could you keep your reply to the number by itself?

Data point: CC(C)C[C@@H]1NC(=O)[C@@]23C(=O)N[C@@H](Cc4ccccc4)C2[C@H](C)[C@@]2(C)O[C@H]2C3/C=C/C/C=C\CNC(=O)[C@@H](C)NC1=O (some centres not stated) ; z-score = -0.366

Entry O=C(NCC(O)CO)[C@@]1(CCS(=O)(=O)c2ccccc2)COC(c2ccc(OCCCO)cc2)=N1 (some centres not stated) , z-score reported as -0.696

Short answer for Cc1ccc(S[C@]2(C(=O)NCc3ccccc3)CC(=O)N(Cc3cc(C(F)(F)F)cc(C(F)(F)F)c3)[C@@H]2c2ccc(CO)cc2I)cc1 : z-score was 0.666

z-score measured on CN(C)C(=O)[C@]1(CCS(=O)(=O)c2ccccc2)N=C(c2ccc(OCCCO)cc2)O[C@@H]1c1ccccc1 = -1.05

Memo: CC(C)OC(=O)CC(=O)CC(O)c1ccc([N+](=O)[O-])cc1 (configuration not stated) , reported z-score: 1.78

Value of z-score reported for the compound C=C(/C(=C/C[C@H](OC(=O)c1ccncc1)c1cccc(OCCO)c1)c1cnc2ccccc2c1)C(C)C is -1.69

// sample C=CCC(OC(C)=O)[C@@H]1[C@@H](N(Cc2ccc(-c3cccc(C(F)(F)F)c3)o2)C(=O)c2ccc(C)cc2)c2cc(OCCCO)ccc2N1C(=O)Cc1ccc(OC)cc1 (some centres not stated) , its z-score was 1.22
